Every entry's value here was drawn from PubChem BioAssay (NCATS).

subjectOfTest: Cytochrome P450 3A4 (Homo sapiens)
runDescription: qHTS Assay for Inhibitors and Substrates of Cytochrome P450 3A4 (AID 884); further: nearly all actives have a fitted effect of over 50% in size; further: potency means the concentration at half of the fitted maximal effect
conditionSet: recombinant CYP3A4, Luciferin-PPXE luminescence; series mostly up to 57.1 µM
Inconclusive results are not listed. Active and inactive are the calls of the source. The call rests on the fitted dose curve; in most records, active means well fitted inhibition curve with a large enough effect; inconclusive means small, poorly fitted or top-dose-only effect; inactive means no such curve, though single readings can be large or run the other way.
outcomeMeasure: Potency

INSERT INTO measurements (compound, reading) VALUES
  ('CC(Cc1ccccc1)C(=O)NCc1ccncc1 (stereo unspecified)', '2.51 µM (active)'),
  ('CC1=C(C(=O)OCc2ccccc2)C(c2cccc([N+](=O)[O-])c2)NC(=O)N1CCCCCC(=O)O (stereo unspecified)', 'inactive'),
  ('CCCCCCN(C(=O)CCCCCN1C(=O)NC(c2ccccc2-c2ccccc2)C(C(=O)OCc2ccccc2)=C1C)C(C(=O)NCCCC)c1ccc(OCC(=O)OC)c(C(=O)OC)c1 (stereo unspecified)', '6.31 µM (active)'),
  ('C=CCC1C=CC(Oc2ccc(OC)cc2)C(CO)O1 (stereo unspecified)', '3.98 µM (active)'),
  ('CCCn1c(C)nc2c(NCCO)nc(C)nc21', 'inactive');

// next item, Potency requested
(Q) Entry under review: COC(=O)NC(/C(C(=O)OC)=C(\C)NCc1ccccc1)c1ccc(F)cc1 (stereo unspecified) . Reported Potency?
(A) 3.16 µM (active)

---

activation: recorded values
runDescription: qHTS assay for small molecule activators of the nuclear factor-kappa B (NF-kB) signaling pathway (AID 651749); further: % of control where 0% means no effect
conditionSet: NF-kB-bla ME-180 cells, beta-lactamase FRET ratio, 16 h; active compounds read high
Excerpt: National Center for Advancing Translational Sciences [NCATS] NIH Chemical Genomics Center [NCGC] U.S. Environmental Protection Agency [EPA] National Institutes of Environmental Health Sciences [NIEHS] National Toxicology Program [NTP] […] This system quantitates NF-kB activity using a FRET-based assay system where beta-lactamase expression disrupts FRET, allowing for fluorescent measurement of activity. […]
Results filed as inconclusive are left out.
Write the answer as a number in %, unit excluded.

INSERT INTO results (compound, reading) VALUES
  ('C[Si](Cl)(Cl)[Si](C)(Cl)Cl', -1.71),
  ('C=C(C)C(=O)OCCC[Si](OC)(OC)OC', -3.72),
  ('c1ccc(B(c2ccccc2)c2ccccc2)cc1', -3.07);

(Q) Entry under review: CCN(Cc1c(F)cccc1Cl)c1c([N+](=O)[O-])cc(C(F)(F)F)cc1[N+](=O)[O-] . Reported activation?
(A) -3.71

(Q) Entry under review: C/C(=C\C(C)CC(C)CC(C)C)C1CC(=O)OC1=O (stereo not drawn) . Reported activation?
(A) -0.74

(Q) Entry under review: C/C=C/C/C=C\CCCCCCCCOC(C)=O . Reported activation?
(A) -0.792

(Q) Entry under review: CC1(C)CC(OC(=O)CCCCCCCCC(=O)OC2CC(C)(C)NC(C)(C)C2)CC(C)(C)N1 . Reported activation?
(A) 2.54

(Q) Entry under review: OCCOCCOCCOCCO . Reported activation?
(A) -0.834

(Q) Entry under review: Cc1ccc(S(=O)(=O)N=C=O)cc1 . Reported activation?
(A) -0.506

(Q) Entry under review: CCCCOCCOCCO . Reported activation?
(A) -0.601

---

subjectOfTest: Cytochrome P450 2C9 (Homo sapiens) (UniProt P11712)
Sequence (P11712 whole entry, looked up): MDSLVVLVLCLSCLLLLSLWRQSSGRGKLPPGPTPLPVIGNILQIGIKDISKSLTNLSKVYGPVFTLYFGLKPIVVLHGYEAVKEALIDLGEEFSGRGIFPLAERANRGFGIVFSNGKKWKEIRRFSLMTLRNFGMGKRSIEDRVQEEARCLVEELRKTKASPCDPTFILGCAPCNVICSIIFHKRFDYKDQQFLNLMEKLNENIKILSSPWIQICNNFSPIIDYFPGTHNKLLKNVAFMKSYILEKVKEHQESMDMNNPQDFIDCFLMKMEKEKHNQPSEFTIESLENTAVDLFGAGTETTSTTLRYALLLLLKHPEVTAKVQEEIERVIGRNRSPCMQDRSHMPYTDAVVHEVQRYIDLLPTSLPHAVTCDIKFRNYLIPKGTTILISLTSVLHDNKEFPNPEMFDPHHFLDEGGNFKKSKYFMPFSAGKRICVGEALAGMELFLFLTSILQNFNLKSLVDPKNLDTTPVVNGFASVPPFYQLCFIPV
runDescription: qHTS Assay for Inhibitors and Substrates of Cytochrome P450 2C9 (AID 883); further: nearly all actives have a fitted effect of over 60% in size
conditionSet: recombinant CYP2C9, luciferin-H luminescence, 60 min; series mostly up to 11.4 µM
Records with an inconclusive call do not appear. Active and inactive are the calls of the source. Calls follow the shape of the dose curve; as a rule, active = well fitted inhibition curve with a large enough effect; inconclusive = small, poorly fitted or top-dose-only effect; inactive = no such curve, though single readings can be large or run the other way.
Form entry, call: pick from active, inactive

Before answering, review these 4 worked examples.
INSERT INTO measurements (molecule, subjectoftest, labelclass) VALUES
  ('C=CCCC/C=C(/C)C(OCc1ccc(OC)cc1)C(CC/C=C(\C)C(N)=O)OC (stereo unspecified)', 'Cytochrome P450 2C9 (Homo sapiens) (UniProt P11712)', 'inactive'),
  ('COC(=O)C/C=C/C(C)C(OCc1cccc(Br)c1)C(C)C(OC)C1CCCCC1 (stereo unspecified)', 'Cytochrome P450 2C9 (Homo sapiens) (UniProt P11712)', 'active'),
  ('C#CC(C)OC(=O)c1nnc2c3ccccc3n(COC)c2n1 (stereo unspecified)', 'Cytochrome P450 2C9 (Homo sapiens) (UniProt P11712)', 'inactive'),
  ('Cc1c(OCc2ccccc2)cccc1OCc1ccccc1', 'Cytochrome P450 2C9 (Homo sapiens) (UniProt P11712)', 'inactive');

(Q) What call does the record list for C=CCOC(=O)C(C(C)=O)C(NC(=O)OC)c1ccccc1 (stereo unspecified) ?
(A) inactive

(Q) What call does the record list for C=CCOCC1CN2C(CCC(C)C2c2ccc(Br)cc2)C(=O)O1 (stereo unspecified) ?
(A) inactive

---

System: DFO2036
runDescription: qHTS profiling for inhibitors of Plasmodium falciparum proliferation (AID 504749); further: nearly all actives have a fitted effect of over 60% in size
conditionSet: P. falciparum in erythrocytes, SYBR Green DNA, 72 h; series mostly up to 28.7 µM
Procedure: NIH National Institute of Allergy and Infectious Diseases [NIAID] NIH Chemical Genomics Center [NCGC] […] Because mature erythrocytes lack DNA, only Plasmodium-derived DNA is detected. NCGC Assay Protocol Summary: The SYBR Green viability assay was adapted from a method described previously (Plouffe et al., 2008). […] The following morning, fluorescence intensity at 485(14) nm excitation and 535(25) nm emission wavelengths was measured on an EnVision (Perkin Elmer) plate reader. […]
Inconclusive results are not listed. Activity calls are given as the source filed them. Calls follow the shape of the dose curve; as a rule, active = well fitted inhibition curve with a large enough effect; inconclusive = small, poorly fitted or top-dose-only effect; inactive = flat fitted curve, though single readings scatter. Numbered stars: 1 amine (or outer) side, 2 acyl side, 3 side chain; on linkers, the order of the positions; unused ones are H or OH. Bridge positions count the residues as written; N and C are the ends. Square brackets hold non-standard residues; d marks the D form. Peptide text beside a SMILES is read from it. * marks the point of attachment. ξ: configuration not given here. ΔAla(Z-3-ureido) = NC(=O)N/C=C(\N)C(=O)O; X2 = NC1=NC(O)CC(C(N[*:1])C(=O)[*:2])N1; ξβ3hOrn = NCCCC(N)CC(=O)*; Orn = NCCC[CH](N)C(=O)O; Dap = NC[CH](N)C(=O)O
Form entry, call: pick from active, inactive

Before answering, review these 4 worked examples.
INSERT INTO assay_data (compound, labelclass) VALUES
  ('NCCCC(N)CC(=O)NC1CNC(=O)C(C2CC(O)N=C(N)N2)NC(=O)/C(=C/NC(N)=O)NC(=O)C(CO)NC(=O)C(CO)NC1=O (stereo not drawn) (ξβ3hOrn-[Dap]SS[ΔAla(Z-3-ureido)][X2]; lactam 1-C; configuration not given here)', 'inactive'),
  ('CC(C)CC1NC(=O)C(CCCN)NC(=O)C(C(C)C)NC(=O)C2CCCN2C(=O)C(Cc2ccccc2)NC(=O)C(CC(C)C)NC(=O)C(CCCN)NC(=O)C(C(C)C)NC(=O)C2CCCN2C(=O)C(Cc2ccccc2)NC1=O (stereo not drawn) (cyclo(FPV[Orn]LFPV[Orn]L); configuration not given here)', 'active'),
  ('O=C(OCC1OC(OC(=O)c2cc(O)c(O)c(OC(=O)c3cc(O)c(O)c(O)c3)c2)[C@@H](OC(=O)c2cc(O)c(O)c(OC(=O)c3cc(O)c(O)c(O)c3)c2)C(OC(=O)c2cc(O)c(O)c(OC(=O)c3cc(O)c(O)c(O)c3)c2)C1OC(=O)c1cc(O)c(O)c(OC(=O)c2cc(O)c(O)c(O)c2)c1)c1cc(O)c(O)c(OC(=O)c2cc(O)c(O)c(O)c2)c1 (stereo partly drawn)', 'active'),
  ('Cn1cc(O)nc1NC(=O)Nc1cccc(Cl)c1', 'inactive');

Please turn your attention to the following entry.
(Q) What call does the record list for CCC(C)C1NC(=O)C(Cc2ccc(O)cc2)NC(=O)C(N)CSSCC(C(=O)N2CCCC2C(=O)NC(CC(C)C)C(=O)NCC(N)=O)NC(=O)C(CC(N)=O)NC(=O)C(CCC(N)=O)NC1=O (stereo not drawn) ?
(A) inactive

---

runDescription: qHTS for Inhibitors of Plasmodium falciparum (HB3) proliferation (AID 504318); further: nearly all actives have a fitted effect of over 60% in size; further: potency means the concentration at half of the fitted maximal effect
conditionSet: P. falciparum HB3 in erythrocytes, SYBR Green DNA, 72 h; series mostly up to 7.21 µM
Records with an inconclusive call do not appear. Active and inactive are the calls of the source. The call rests on the fitted dose curve; in most records, active means well fitted inhibition curve with a large enough effect; inconclusive means small, poorly fitted or top-dose-only effect; inactive means flat fitted curve, though single readings scatter.
outcomeMeasure: Potency

Check out these entries, answers already filled in.
INSERT INTO measurements (molecule, reading) VALUES
  ('COC(=O)CCC(=O)OC1(C)C(=O)C=C2C=C(C3CC3)N(CCc3ccccn3)C=C2C1=O (stereo not drawn)', 'inactive'),
  ('COC(=O)[C@H]1[C@H](CCc2ccccc2)NC(=O)N(Cc2ccccc2)[C@@H]1C', 'inactive'),
  ('COCOc1ccc(OC)cc1C(=O)C=Cc1ccc(OC)c(Br)c1', '1.69 µM (active)'),
  ('CCCCC1=CC2=C(c3ccco3)C(=O)C(C)(OC(=O)c3ccc(OC)cc3)C(=O)C2=CN1CCOC (stereo not drawn)', 'inactive'),
  ('CCCCC1=CC2=CC(=O)C(C)(OC(=O)CC)C(=O)C2=CN1C1CCCC1 (stereo not drawn)', 'inactive');

(Q) Entry under review: C=CCN1c2ccccc2[C@]23C[C@@H](C(=O)OC)N(C(=O)C4CCC4)C2=NC(C(=O)OC)=C(C(=O)OC)[C@H]13 . Reported Potency?
(A) inactive

(Q) Entry under review: C=CCN1C=C2C(=O)C(C)(OC(=O)c3cccs3)C(=O)C=C2C=C1CCCC(=O)OC (stereo not drawn) . Reported Potency?
(A) inactive

(Q) Entry under review: COC(=O)C1=C(C(=O)OC)[C@@H]2N(Cc3ccccc3)c3ccccc3[C@@]23C[C@@H](C(=O)OC)N(S(=O)(=O)c2ccc([N+](=O)[O-])cc2)C3=N1 . Reported Potency?
(A) 1.9 µM (active)

(Q) Entry under review: CCOC(=O)CN1C(=O)N[C@@H](c2cccc(C(F)(F)F)c2)C(C(C)=O)=C1C . Reported Potency?
(A) inactive

(Q) Entry under review: c1ccc(-c2nc(-c3cccc4ccccc34)c(Nc3ccc4ccccc4c3)o2)cc1 . Reported Potency?
(A) 1.51 µM (active)

(Q) Entry under review: CCN(CC)CCCN1C=C2C(=O)C(C)(OC(=O)CCc3ccccc3)C(=O)C=C2C=C1c1ccc(C#N)cc1 (stereo not drawn) . Reported Potency?
(A) inactive

(Q) Entry under review: CC#CCN1c2ccccc2[C@]23C[C@@H](C(=O)OC)N(C(=O)CC(C)C)C2=NC(C(=O)OC)=C(C(=O)OC)[C@H]13 . Reported Potency?
(A) inactive

(Q) Entry under review: CCCCC1=CC2=CC(=O)C(C)(OC(=O)CC)C(=O)C2=CN1CCCCO (stereo not drawn) . Reported Potency?
(A) inactive

(Q) Entry under review: CCCCCCCc1cc2ccccc2c2c(C(=O)OC)c(-c3ccccc3)c(C(=O)OC)n12 . Reported Potency?
(A) inactive

(Q) Entry under review: CCCCc1nc2c(c3c1C[C@H](C)OC3)CN(C(=O)Nc1cccc(C#N)c1)CC2 . Reported Potency?
(A) inactive

(Q) Entry under review: COC(=O)N[C@@H](c1cccc(C)c1)C(C(C)=O)C(=O)OC (stereo partly drawn) . Reported Potency?
(A) inactive

(Q) Entry under review: C=CCN1c2ccccc2[C@]23C[C@@H](C(=O)OC)N(S(=O)(=O)CCCC)C2=NC(C(=O)OC)=C(C(=O)OC)[C@H]13 . Reported Potency?
(A) inactive

(Q) Entry under review: C[C@H]1Cc2c(-c3ccccc3)nc3c(c2CO1)CN(C(=O)NCCc1c[nH]c2ccccc12)CC3 . Reported Potency?
(A) inactive
